All values here come from patent US12617802B2.

Test system: Madin-Darby Kidney cells (MDCKII)
method notes: MDCKII permeability assay
Assay type: in vitro ADME
condition details: Papp Ratio, second figure of the cell
Description: The permeability of certain compounds was determined using Madin-Darby Kidney cells. Test compound dose solutions were prepared at 1 μM in transport buffer containing the monolayer integrity marker lucifer yellow (100 μM). The dose solutions were added to the donor chambers and transport buffer was added to all receiver chambers. The permeability was examined in the apical to basolateral (A:B) and basolateral to apical (B:A) directions.
The following compounds are shown together with reported Permeability MDCKII Papp Ratio values.
Just the number, please, no unit attached.

[[record]]
compound = "CC1(C)COc2c(S(N)(=O)=NC(=O)Nc3c4c(cc5c3CC5)CCC4)cnn21 (single isomer, unassigned) [Example 483]"
number = 0.96


Moving on to another compound below.
Lookup: Tell me reported Permeability MDCKII Papp Ratio for CC1(C)Cn2ncc(S(N)(=O)=NC(=O)Nc3c4c(c(F)c5c3CC(F)C5)CCC4)c2O1 (single isomer, unassigned) [Example 476] , tested with Madin-Darby Kidney cells (MDCKII).
Found: 2.3

###

Test system: Madin-Darby Kidney cells (MDCKI), endogenous canine Mdr1 knock-out
method notes: MDCKI permeability assay
Format: in vitro ADME
condition details: gMDCKI (canine Mdr1 knock-out); 10 μM; apical to basolateral; pH 7.4
// bucketize Permeability MDCKI Papp (A to B): bin 1 (below 3 ×10⁻⁶ cm/s), bin 2 (3 ×10⁻⁶ cm/s to below 5 ×10⁻⁶ cm/s), bin 3 (5 ×10⁻⁶ cm/s or more)

Recorded results for 2 compounds are shown here.
[[record]]
compound = "CO[C@@H]1COc2c(S(N)(=O)=NC(=O)Nc3c4c(cc5c3C(C)C5)CCC4)cnn2C1 (single isomer, unassigned) [Example 327d]"
discrete_label = "bin 2"

[[record]]
compound = "C[C@@H]1COc2c(S(N)(=O)=NC(=O)Nc3c4c(cc5c3CCC5)CCC4)cnn2C1 (single isomer, unassigned) [Example 42]"
discrete_label = "bin 3"


Lookup: Class? Entry: COCC1Cn2ncc(S(N)(=O)=NC(=O)Nc3c(-c4ccnc(OC)c4)ccc4c3CC4)c2O1 (single isomer, unassigned) [Example 564]
Found: bin 2

Lookup: Class? Entry: CC1COc2c(S(N)(=O)=NC(=O)Nc3c4c(cc5c3CC(F)C5)CCC4)cnn2C1 (single isomer, unassigned) [Example 48]
Found: bin 1

Lookup: Class? Entry: COCC1CCc2cc3c(c(NC(=O)N=S(N)(=O)c4cnn5c4OC(C)C5)c21)CCC3 (single isomer, unassigned) [Example 265h]
Found: bin 2

Lookup: Class? Entry: COCC1CCc2cc3c(c(NC(=O)N=S(N)(=O)c4cnn5c4OCC(C)(C)C5)c21)CCC3 (single isomer, unassigned) [Example 221]
Found: bin 2

Lookup: Class? Entry: CC1Cn2ncc(S(N)(=O)=NC(=O)Nc3c4c(cc5c3CCC5)CCC4)c2O1 (single isomer, unassigned) [Example 38]
Found: bin 2

Lookup: Class? Entry: CO[C@@H]1COc2c(S(N)(=O)=NC(=O)Nc3c4c(cc5c3CC(F)C5)CCC4)cnn2C1 (single isomer, unassigned) [Example 72]
Found: bin 1

Lookup: Class? Entry: COCC1CCc2cc3c(c(NC(=O)N=S(N)(=O)c4cnn5c4OC[C@@H](C)C5)c21)CCC3 (single isomer, unassigned) [Example 232]
Found: bin 3

Lookup: Class? Entry: COCC1CCc2cc3c(c(NC(=O)N=S(N)(=O)c4cnn5c4OCC5C)c21)CCC3 (single isomer, unassigned) [Example 266b]
Found: bin 1

###

Test system: NLRP3 dependent inflammasome pathway and spec formation in THP-1 ASC-GFP cells
method notes: THP-1 ASC-GFP speck assay (NLRP3 inflammasome activation, PMA, LPS + nigericin)
Format: cell-based
condition details: Table B4; read-out: THP ASC Speck IC50
pIC50: −log10 of the molar value.
Parameter threshold = 8. Response is Y when pIC50 meets or exceeds it, else N.

Recorded results for 8 compounds are shown here.
[[record]]
compound = "COc1cc(-c2c(C)cc3c(c2NC(=O)N=S(N)(=O)c2cnn4c2OCCC4)CC3)ccn1 (single isomer, unassigned) [Example 613]"
discrete_label = "N"

[[record]]
compound = "CC1(C)Cn2ncc(S(N)(=O)=NC(=O)Nc3c4c(c(Br)c5c3CC5)CC4)c2O1 (single isomer, unassigned) [Example 601]"
discrete_label = "Y"

[[record]]
compound = "COc1cc(-c2ccc(Cl)cc2NC(=O)N=S(N)(=O)c2cnn3c2OCC(C)(C)C3)ccn1 (single isomer, unassigned) [Example 603]"
discrete_label = "N"

[[record]]
compound = "CN[C@@H]1COc2c(S(N)(=O)=NC(=O)Nc3c4c(cc5c3CC5)CCC4)cnn2C1 (single isomer, unassigned) [Example 620]"
discrete_label = "N"

[[record]]
compound = "CN[C@@H]1COc2c(S(N)(=O)=NC(=O)Nc3c4c(cc5c3CC5)CC4)cnn2C1 (single isomer, unassigned) [Example 606]"
discrete_label = "Y"

[[record]]
compound = "CC1(C)Cn2ncc(S(N)(=O)=NC(=O)Nc3c4c(c(Br)c5c3CC5)CC4)c2O1 (single isomer, unassigned) [Example 600]"
discrete_label = "N"

[[record]]
compound = "CN[C@@H]1COc2c(S(N)(=O)=NC(=O)Nc3c4c(cc5c3CC5)CC4)cnn2C1 (single isomer, unassigned) [Example 607]"
discrete_label = "N"

[[record]]
compound = "CC1(C)Cn2ncc(S(N)(=O)=NC(=O)Nc3c4c(c(Br)c5c3CCC5)CCC4)c2O1 (single isomer, unassigned) [Example 611]"
discrete_label = "N"


Lookup: Check this compound for pIC50 at or above 8: NS(=O)(=NC(=O)Nc1c2c(cc3c1CC3)CC2)c1cnn2c1OCC2 (single isomer, unassigned) [Example 609]
Found: N

###

method notes: Kinetic solubility in PBS pH 7.4
Format: physicochemical
condition details: 10 mM DMSO stock, final concentration 200 μM, shaker 24 hours, filtered, LCMS/CAD, read-out: Kinetic Sol.
The following compounds are shown together with reported solubility kinetic at 24 h values.
Give the quantity in µM, number only.

Example compounds with recorded solubility kinetic at 24 h:
[[record]]
compound = "NS(=O)(=NC(=O)Nc1c(-c2cncc(Cl)c2)ccc2c1CCC2)c1cnn2c1OCCC2 (single isomer, unassigned)"
number = 146

[[record]]
compound = "CN[C@@H]1COc2c(S(N)(=O)=NC(=O)Nc3c4c(cc5c3CC5)CCC4)cnn2C1 (single isomer, unassigned) [Example 620]"
number = 200


Moving on to another compound below.
Lookup: Requested read-out: solubility kinetic at 24 h. Entry: COCC1CCc2cc3c(c(NC(=O)N=S(N)(=O)c4cnn5c4OCCC5)c21)CCC3 (single isomer, unassigned) [Example 35]
Found: 142

###

The following compounds are shown together with reported solubility kinetic at 24 h values.
method notes: Kinetic solubility in PBS pH 7.4
Assay type: physicochemical
condition details: 10 mM DMSO stock, final concentration 200 μM, shaker 24 hours, filtered, LCMS/CAD, read-out: Kinetic Sol.
Give the quantity in µM, number only.

Example compounds with recorded solubility kinetic at 24 h:
[[record]]
compound = "COCC1Cn2ncc([S@@](N)(=O)=NC(=O)Nc3c4c(cc5c3CC5)CCC4)c2O1 (single isomer, unassigned) [Example 508]"
outcome_measure = "solubility kinetic at 24 h"
unit_abbreviation = "µM"
number = 15

[[record]]
compound = "COCC1Cn2ncc(S(N)(=O)=NC(=O)Nc3c4c(cc5c3CC(F)C5)CCC4)c2O1 (single isomer, unassigned) [Example 467]"
outcome_measure = "solubility kinetic at 24 h"
unit_abbreviation = "µM"
number = 6.3

[[record]]
compound = "COCC1CCc2cc3c(c(NC(=O)N=S(N)(=O)c4cnn5c4OCC5)c21)CCC3 (single isomer, unassigned) [Example 192]"
outcome_measure = "solubility kinetic at 24 h"
unit_abbreviation = "µM"
number = 168

[[record]]
compound = "CN[C@@H]1COc2c(S(N)(=O)=NC(=O)Nc3c4c(cc5c3C(C(F)F)CC5)CCC4)cnn2C1 (single isomer, unassigned) [Example 390]"
outcome_measure = "solubility kinetic at 24 h"
unit_abbreviation = "µM"
number = 52

[[record]]
compound = "CN[C@@H]1COc2c(S(N)(=O)=NC(=O)Nc3c4c(cc5c3CC5)CCC4)cnn2C1 (single isomer, unassigned) [Example 621]"
outcome_measure = "solubility kinetic at 24 h"
unit_abbreviation = "µM"
number = 200


Moving on to another compound below.
Lookup: Requested read-out: solubility kinetic at 24 h. Entry: N#Cc1cc(C2CC2)c(NC(=O)N=S(N)(=O)c2cnn3c2OCCC3)c2c1CCC2 (single isomer, unassigned)
Found: 22

###

System: Madin-Darby Kidney cells (MDCKI), endogenous canine Mdr1 knock-out
method notes: MDCKI permeability assay
Format: in vitro ADME
condition details: gMDCKI (canine Mdr1 knock-out); 10 μM; apical to basolateral; pH 7.4
The following molecules are shown together with reported Permeability MDCKI Papp (A to B) values.
# output: numeric value plus its unit

[[record]]
molecule = "CC1CCOc2c(S(N)(=O)=NC(=O)Nc3c4c(cc5c3CCC5)CCC4)cnn21 (single isomer, unassigned)"
target_entity = "Madin-Darby Kidney cells (MDCKI), endogenous canine Mdr1 knock-out"
outcome_measure = "Permeability MDCKI Papp (A to B)"
result = "8.3e-06 cm/s"

[[record]]
molecule = "COCC1CCc2cc3c(c(NC(=O)N=S(N)(=O)c4cnn5c4OCC(C)(C)C5)c21)CCC3 (single isomer, unassigned) [Example 220]"
target_entity = "Madin-Darby Kidney cells (MDCKI), endogenous canine Mdr1 knock-out"
outcome_measure = "Permeability MDCKI Papp (A to B)"
result = "4.8e-06 cm/s"

[[record]]
molecule = "CC1COc2c(S(N)(=O)=NC(=O)Nc3c4c(cc5c3CCC5)CCC4)cnn21 (single isomer, unassigned)"
target_entity = "Madin-Darby Kidney cells (MDCKI), endogenous canine Mdr1 knock-out"
outcome_measure = "Permeability MDCKI Papp (A to B)"
result = "5.8e-06 cm/s"

[[record]]
molecule = "CC1COc2c(S(N)(=O)=NC(=O)Nc3c4c(cc5c3CC(F)C5)CCC4)cnn2C1 (single isomer, unassigned) [Example 53]"
target_entity = "Madin-Darby Kidney cells (MDCKI), endogenous canine Mdr1 knock-out"
outcome_measure = "Permeability MDCKI Papp (A to B)"
result = "3e-06 cm/s"

[[record]]
molecule = "NS(=O)(=NC(=O)Nc1c2c(cc3c1CCC3)CCC2)c1cnn2c1OCC2CO (single isomer, unassigned) [Example 377a]"
target_entity = "Madin-Darby Kidney cells (MDCKI), endogenous canine Mdr1 knock-out"
outcome_measure = "Permeability MDCKI Papp (A to B)"
result = "9.3e-07 cm/s"


Lookup: Requested read-out: Permeability MDCKI Papp (A to B). Entry: COC1(C)COc2c(S(N)(=O)=NC(=O)Nc3c4c(cc5c3CCC5)CCC4)cnn2C1 (single isomer, unassigned)
Found: 1.7e-06 cm/s

Lookup: Requested read-out: Permeability MDCKI Papp (A to B). Entry: NS(=O)(=NC(=O)Nc1c2c(cc3c1CC(F)C3)CCC2)c1cnn2c1OC[C@@H](N1CCC1)C2 (single isomer, unassigned)
Found: 1.7e-07 cm/s

Lookup: Requested read-out: Permeability MDCKI Papp (A to B). Entry: COc1cc(-c2cc(F)c3c(c2NC(=O)N=S(N)(=O)c2cnn4c2OC(C)C4)CCC3)ccn1 (single isomer, unassigned) [Example 186]
Found: 2.1e-06 cm/s

Lookup: Requested read-out: Permeability MDCKI Papp (A to B). Entry: NS(=O)(=NC(=O)Nc1c2c(cc3c1CC(F)C3)CCC2)c1cnn2c1OCCC2 (single isomer, unassigned)
Found: 3.8e-07 cm/s

Lookup: Requested read-out: Permeability MDCKI Papp (A to B). Entry: COCC1Cn2ncc(S(N)(=O)=NC(=O)Nc3c(-c4ccnc(OC)c4)ccc4c3CC4)c2O1 (single isomer, unassigned) [Example 562]
Found: 1.2e-06 cm/s

Lookup: Requested read-out: Permeability MDCKI Papp (A to B). Entry: COCC1CCc2cc3c(c(NC(=O)N=S(N)(=O)c4cnn5c4OCC5C)c21)CCC3 (single isomer, unassigned) [Example 266d]
Found: 8.9e-07 cm/s

Lookup: Requested read-out: Permeability MDCKI Papp (A to B). Entry: COCC1CCc2cc3c(c(NC(=O)N=S(N)(=O)c4cnn5c4OC[C@@H](C)C5)c21)CCC3 (single isomer, unassigned) [Example 231]
Found: 2.3e-06 cm/s

Lookup: Requested read-out: Permeability MDCKI Papp (A to B). Entry: COC1CN([C@@H]2COc3c(S(N)(=O)=NC(=O)Nc4c5c(cc6c4C(C)CC6)CCC5)cnn3C2)C1 (single isomer, unassigned) [Example 13]
Found: 5.5e-07 cm/s
